These data points were gathered from PubChem BioAssay (NCI).

- Tested on: 786-0 renal
- Assay summary: NCI-60 one-dose screen, 48 h
- Test conditions: 10 µM unless noted
The panel holds about 83,000 compounds, 20% with a hit somewhere; the sample as a whole holds those more often. The source made the active and inactive calls. How the source made its calls: active means growth percent below 10; inactive means the rest.
# valid calls are label 1 for active, label 0 for inactive; nothing else

Reference set (4 entries):
{"columns": ["Molecule", "Assay target", "Category label"],
 "data": [
  ["COC(=O)[C@]12CC[C@@H](C)[C@H](C)[C@@H]1C1=CC[C@@H]3[C@@]4(C)C[C@@H](OC(C)=O)[C@H](O)[C@@](C)(CO)[C@@H]4[C@H](O)C[C@@]3(C)[C@]1(C)CC2", "786-0 renal", "label 1"],
  ["O=C1Nc2ccccc2/C1=C/c1cn(CCCn2c3ccccc3c(=O)c3ccccc32)c2ccccc12", "786-0 renal", "label 0"],
  ["COc1cccc(-c2nn(-c3ccccc3)cc2-c2ccnc(NCCCNS(=O)(=O)c3cccc(F)c3)c2)c1", "786-0 renal", "label 0"],
  ["CCN1CCN(c2nc(C)cc(N(CCCNc3ccnc4cc(Cl)ccc34)Cc3ccco3)n2)CC1", "786-0 renal", "label 0"]
]}

Ask: Hello, I am checking results. What call was entered for "Nc1c(C(=O)Nc2cccc(Cl)c2)sc2ncc(Cl)cc12" ?
Result: label 0

Ask: Hello, I am checking results. What call was entered for "C=CC(=O)N[C@H](Cc1ccc(-c2cc(Cl)cc(Cl)c2)cc1)[C@H](O)[C@@H](O)C(=O)O" ?
Result: label 0

Ask: Hello, I am checking results. What call was entered for "COc1ccc(-c2nc3ccccn3c2-c2nc3ccc(Cl)cc3[nH]2)cc1" ?
Result: label 0

Ask: Hello, I am checking results. What call was entered for COc1cc2ncnc(Nc3ccc(Oc4ccnc(C)c4)c(C)c3)c2cc1NC(=O)CC1CCSS1 (stereo not drawn) ?
Result: label 0

Ask: Hello, I am checking results. What call was entered for "C=C(C)[C@@H]1CC[C@]2(C)[C@H](CC=C3[C@@H]4CC(C)(C)CC[C@]4(C(=O)OC)CC[C@]32C)[C@@]1(C)CC/C(N)=N/O" ?
Result: label 0

Ask: Hello, I am checking results. What call was entered for "C[C@]12CC[C@@H]3c4ccc(O)cc4CC[C@H]3[C@@H]1C[C@H](O)[C@@H]2O" ?
Result: label 0

Ask: Hello, I am checking results. What call was entered for "c1ccc2c(-c3nc(-c4c[nH]c5ncccc45)cs3)c[nH]c2c1" ?
Result: label 0

Ask: Hello, I am checking results. What call was entered for "O=S(=O)(NCCNc1cc(-c2cn(-c3ccccc3)nc2-c2cccc(O)c2)ccn1)c1ccc(F)cc1" ?
Result: label 1

###

- Tested on: UO-31 renal
- Assay summary: NCI-60 one-dose screen, 48 h (100 = growth as untreated, 0 = no growth, -100 = all killed)
- Test conditions: 10 µM unless noted
The panel holds about 83,000 compounds, 20% with a hit somewhere; the sample as a whole holds those more often.
Labelling: growth reported below 50% becomes YES; at or above becomes NO.

Reference set (5 entries):
{"columns": ["Compound", "Category label"],
 "data": [
  ["O=P(O)(c1ccccc1)c1ccccc1I", "NO"],
  ["CC(C)c1cc(C(=O)O)c(O)c(C(C)C)c1.CC(C)c1cc(C(=O)O)c(O)c(C(C)C)c1.[Mn]", "NO"],
  ["COc1ccc(OC)c(-c2c(C#N)c(-c3ccco3)nc3c2c(-c2ccccc2)nn3-c2ccccc2)c1", "NO"],
  ["COc1cc2nc(Cl)nc(Nc3cccc(C(=O)/C=C/c4ccc(Br)cc4)c3)c2cc1OC", "NO"],
  ["Nc1nc(Br)nc2c1ncn2C1CC(O)C(CO)O1 (centres undefined)", "YES"]
]}

Ask: Quick check: growth of "COc1ccc(-c2cc(-c3c(C)oc4cc5occc5c(OC)c4c3=O)nc(N)c2C#N)cc1OC" under 50%?
Result: YES

Ask: Quick check: growth of "N#Cc1cnc2cc(OC[C@@H](O)CO)c(NC(=O)C3CCCC3)cc2c1Nc1ccc(OCc2cccc(F)c2)c(Cl)c1" under 50%?
Result: YES

###

- Test system: SK-MEL-2 melanoma
- Assay summary: NCI-60 one-dose screen, 48 h (100 = growth as untreated, 0 = no growth, -100 = all killed)
- Test conditions: 10 µM unless noted
This is part of a sample that, as a whole, favours compounds with a hit. Of some 83,000 tested, about 20% had one in any assay.
Property label: growth (%)
Write the answer as a number in %, unit excluded.

Some solved entries appear below for comparison.
{"columns": ["Record smiles", "Unit abbrev", "Value observed"],
 "data": [
  ["Cc1ccc(S(=O)(=O)Nc2ccc(-c3cc(-c4cccc(F)c4)c(C#N)c(N)n3)cc2)cc1", "%", 17.1],
  ["COc1ccc(/C=C2\\N=C(c3ccccc3)N(c3cc(OC)c(OC)cc3C(=O)N3N=C(C)CC3=O)C2=O)cc1", "%", 91.1],
  ["CCOC(=O)N1CCN(CCCCOc2ccc(C(C)(C)CC)cc2)CC1", "%", 95.8],
  ["O=S(=O)(NCCNc1cc(-c2cn(-c3ccccc3)nc2-c2cccc(O)c2)ccn1)c1ccc(Cl)cc1", "%", 34.9]
]}

Proceeding to the next compound to report its growth.
So for "O=C(O[C@@H]1Cc2c(O)cc(O)cc2O[C@@H]1c1cc(O)c(O)c(O)c1)c1cc(O)c2c(c1)OCO2" , the logged growth turned out to be 102

###

Overview of recorded growth for various molecules
- Tested on: K-562 leukemia
- Assay summary: NCI-60 one-dose screen, 48 h (100 = growth as untreated, 0 = no growth, -100 = all killed)
- Test conditions: 10 µM unless noted
Compounds without any hit were thinned out: in the full panel of roughly 83,000, 20% have a hit.
Write the answer as a number in %, unit excluded.

{"columns": ["Molecule", "Assay target", "growth / %"],
 "data": [
  ["Cc1nn2c(-c3nc4cc(Cl)c(Cl)cc4[nH]3)c(-c3ccc(F)cc3)nc2s1", "K-562 leukemia", 68],
  ["COC(=O)[C@]12CC[C@@H](C)[C@H](C)[C@@H]1C1=CC[C@@H]3[C@@]4(C)C[C@@H](O)OC[C@](C)(C=O)C4C(=O)C[C@@]3(C)[C@]1(C)CC2 (some centres undefined)", "K-562 leukemia", 3.89],
  ["O=C(NC1=CC(=O)c2ccccc2C1=O)c1ccccc1", "K-562 leukemia", -0.828],
  ["O=C(O[C@@H]1Cc2c(O)cc(O)cc2O[C@@H]1c1cc(O)c(O)c(O)c1)c1cc(O)c2c(c1)OCO2", "K-562 leukemia", 91],
  ["Cc1ccc(S(=O)(=O)Nc2ccc(-c3cc(-c4cccc(F)c4)c(C#N)c(=O)[nH]3)cc2)cc1", "K-562 leukemia", 54.9],
  ["O=c1[nH]c(=S)[nH]c2nc[nH]c12", "K-562 leukemia", 89.2],
  ["COc1cc(-c2cc(-c3nc4ccccc4[nH]3)[nH]n2)cc(OC)c1OC", "K-562 leukemia", 4.51],
  ["C/C(=N\\NC(=O)C(C)SC(C)C(=O)N/N=C(\\C)c1cccnc1)c1cccnc1 (centres undefined)", "K-562 leukemia", 91.9]
]}

So for "O=C1OC(c2ccc(Cl)c(Cl)c2)=C/C1=C/c1cccc([N+](=O)[O-])c1" , the logged growth turned out to be 99

###

- Tested on: SN12C renal
- Assay summary: NCI-60 one-dose screen, 48 h
- Test conditions: 10 µM unless noted
Compounds without any hit were thinned out: in the full panel of roughly 83,000, 20% have a hit. Active and inactive are the calls of the source. How the source made its calls: active means growth percent below 10; inactive means the rest.
# valid calls are yes (1) for active, no (0) for inactive; nothing else

{"columns": ["Compound", "Category label"],
 "data": [
  ["N#CCCCCCn1c2ccccc2c2c3c(c4c5ccccc5n(CCCCCC#N)c4c21)C(=O)N(O)C3=O", "no (0)"],
  ["CCCCC(=O)OC1CCCCC1C (stereo unspecified)", "no (0)"],
  ["COc1cc(C(=O)/C=C/c2cc(-c3ccc4c(c3)OCO4)n[nH]2)cc(OC)c1OC", "no (0)"],
  ["O=C(/C(=C(\\C(=O)c1ccccc1)c1ccccc1)c1ccccc1)c1ccccc1", "no (0)"],
  ["O=C(N/N=C\\c1ccccc1O)C1CC1", "no (0)"]
]}

Note: attention shifts to another entry.
Ask: Hello, I am checking results. What call was entered for "Nc1ccc(Br)cn1" ?
Result: no (0)

###

- Test system: HT29 colon
- Assay summary: NCI-60 one-dose screen, 48 h (100 = growth as untreated, 0 = no growth, -100 = all killed)
- Test conditions: 10 µM unless noted
- Method: Growth inhibition of the HT29 human tumor cell line is measured as a screen for anti-cancer activity. Cells are grown in 96 well plates and exposed to the test compound for 48 hours. Compounds are tested at a single concentration, which is 10^-5 M for most compounds. The reported endpoint is percent growth (GI% or GIPRCNT), where numbers from 0 - 100% represent growth inhibition, and numbers from -100% - 0 represent cell death. For example, a value of 40 represents 60% growth inhibition. […]
Compounds without any hit were thinned out: in the full panel of roughly 83,000, 20% have a hit.
Property label: growth (%)
Write the answer as a number in %, unit excluded.

{"columns": ["Compound", "growth, %"],
 "data": [
  ["COc1ccc(-c2n[nH]nc2-c2cc3ccccc3s2)cc1O", 29.9]
]}

# "Cn1c2c(Cl)c(Cl)ccc2c2c(C#N)c[nH]c(=O)c21" with HT29 colon: growth is 99.5

# "Cn1c(=O)c2c(nc(N3CCCC3)n2C)n(C)c1=O" with HT29 colon: growth is 94.5

# "O=C1C(=O)N(CCCCn2cc(-c3ccccc3)nn2)c2ccccc21" with HT29 colon: growth is 112

# N#CC1=C(N)Oc2c(sc3c(F)cccc23)C1c1ccc(Cl)cc1 (stereo unspecified) with HT29 colon: growth is 15.6

# "[B-][N+](CC)(CC)c1ccccc1" with HT29 colon: growth is 107

# CC(=O)O[C@H]1CC[C@@]2(C)[C@@H](CC[C@@H]3[C@@H]2CC(=O)[C@@]2(C)[C@H]3C[C@@H](C3CCCC3=O)[C@@H]2C(C)=O)C1 (stereo partly specified) with HT29 colon: growth is 95.6

# "CN(C)c1ccc(N)c2ccccc12" with HT29 colon: growth is 70.5

# "C[C@H]1[C@H]2C3=CC[C@@H]4[C@@]5(C)C/C(=C/c6ccco6)C(=O)C(C)(C)[C@@H]5CC[C@@]4(C)[C@]3(C)CC[C@@]2(C(=O)N2CCOCC2)CC[C@@H]1C" with HT29 colon: growth is 28.9

# "COc1ccc(/C(=C\c2ccc3c(c2)OCO3)C(=O)Nc2nc3ccccc3s2)cc1OC" with HT29 colon: growth is 90.3

# "COc1cc(OC)c2c(c1)c1nc3cc(C)c(C)cc3nc1n2CCN(C)C" with HT29 colon: growth is 85.8
